Reported EC50 by item:
test system: erythroid progenitor cells (EPCs); test: Fetal hemoglobin (HbF) ELISA in day 7 erythroid progenitor cells; type: cell-based, human; conditions: Homo sapiens, Erythroid progenitor cell, HbF ELISA, day 7 EPCs, 5 days; read-out: EPC ELISA (pEC50 category) (converted);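 further: for fetal hemoglobin induction normalized to vehicle-treated cells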

# count of solved cases: 5
| COMPOUND | REPORTED |
| --- | --- |
| CCc1c(C#N)c(SC(C(N)=O)c2ccccc2)nc(N(C)C2CCN(C)C2)c1C#N (centres unmarked) | 1000 to 31600 nM |
| CCc1c(C#N)c(SCc2ccc(S(N)(=O)=O)cc2)nc(N2CCCN(C)CC2)c1C#N | 316 to 1000 nM |
| CCc1c(C#N)c(SCc2ccc(CC(=O)NCCO)cc2)nc(N2CCCN(C)CC2)c1C#N | 316 to 1000 nM |
| N#Cc1c(SC(C(N)=O)c2ccccc2)nc(N2CCC(OCCN)CC2)c(C#N)c1C1CC1 (centres unmarked) | 1000 to 31600 nM |
| CCc1c(C#N)c(SC(C(N)=O)c2ccccc2)nc(N(C)CCNC)c1C#N (centres unmarked) | < 316 nM |

Request the reported EC50 associated with CCc1c(C#N)c(SC(C(N)=O)c2ccccc2)nc(N2CCNCC2)c1C#N (centres unmarked)
< 316 nM

Quick one: EC50 of CCc1c(C#N)c(SC(C(N)=O)c2ccccc2)nc(N(C)C2CC3CCC(C2)N3)c1C#N (centres unmarked) ?
316 to 1000 nM

Record request: EC50 value, item CCc1c(C#N)c(SC(C(N)=O)c2ccccc2)nc(N2CCC(NC3CCC3)CC2)c1C#N (centres unmarked)
< 316 nM

---

biological target: DNMT1 (Homo sapiens, UniProt P26358); test: DNMT1 biochemical activity, breaklight assay and/or SPA assay; settings: binned activity in either the breaklight or the SPA assay
Sequence (P26358 whole entry, looked up): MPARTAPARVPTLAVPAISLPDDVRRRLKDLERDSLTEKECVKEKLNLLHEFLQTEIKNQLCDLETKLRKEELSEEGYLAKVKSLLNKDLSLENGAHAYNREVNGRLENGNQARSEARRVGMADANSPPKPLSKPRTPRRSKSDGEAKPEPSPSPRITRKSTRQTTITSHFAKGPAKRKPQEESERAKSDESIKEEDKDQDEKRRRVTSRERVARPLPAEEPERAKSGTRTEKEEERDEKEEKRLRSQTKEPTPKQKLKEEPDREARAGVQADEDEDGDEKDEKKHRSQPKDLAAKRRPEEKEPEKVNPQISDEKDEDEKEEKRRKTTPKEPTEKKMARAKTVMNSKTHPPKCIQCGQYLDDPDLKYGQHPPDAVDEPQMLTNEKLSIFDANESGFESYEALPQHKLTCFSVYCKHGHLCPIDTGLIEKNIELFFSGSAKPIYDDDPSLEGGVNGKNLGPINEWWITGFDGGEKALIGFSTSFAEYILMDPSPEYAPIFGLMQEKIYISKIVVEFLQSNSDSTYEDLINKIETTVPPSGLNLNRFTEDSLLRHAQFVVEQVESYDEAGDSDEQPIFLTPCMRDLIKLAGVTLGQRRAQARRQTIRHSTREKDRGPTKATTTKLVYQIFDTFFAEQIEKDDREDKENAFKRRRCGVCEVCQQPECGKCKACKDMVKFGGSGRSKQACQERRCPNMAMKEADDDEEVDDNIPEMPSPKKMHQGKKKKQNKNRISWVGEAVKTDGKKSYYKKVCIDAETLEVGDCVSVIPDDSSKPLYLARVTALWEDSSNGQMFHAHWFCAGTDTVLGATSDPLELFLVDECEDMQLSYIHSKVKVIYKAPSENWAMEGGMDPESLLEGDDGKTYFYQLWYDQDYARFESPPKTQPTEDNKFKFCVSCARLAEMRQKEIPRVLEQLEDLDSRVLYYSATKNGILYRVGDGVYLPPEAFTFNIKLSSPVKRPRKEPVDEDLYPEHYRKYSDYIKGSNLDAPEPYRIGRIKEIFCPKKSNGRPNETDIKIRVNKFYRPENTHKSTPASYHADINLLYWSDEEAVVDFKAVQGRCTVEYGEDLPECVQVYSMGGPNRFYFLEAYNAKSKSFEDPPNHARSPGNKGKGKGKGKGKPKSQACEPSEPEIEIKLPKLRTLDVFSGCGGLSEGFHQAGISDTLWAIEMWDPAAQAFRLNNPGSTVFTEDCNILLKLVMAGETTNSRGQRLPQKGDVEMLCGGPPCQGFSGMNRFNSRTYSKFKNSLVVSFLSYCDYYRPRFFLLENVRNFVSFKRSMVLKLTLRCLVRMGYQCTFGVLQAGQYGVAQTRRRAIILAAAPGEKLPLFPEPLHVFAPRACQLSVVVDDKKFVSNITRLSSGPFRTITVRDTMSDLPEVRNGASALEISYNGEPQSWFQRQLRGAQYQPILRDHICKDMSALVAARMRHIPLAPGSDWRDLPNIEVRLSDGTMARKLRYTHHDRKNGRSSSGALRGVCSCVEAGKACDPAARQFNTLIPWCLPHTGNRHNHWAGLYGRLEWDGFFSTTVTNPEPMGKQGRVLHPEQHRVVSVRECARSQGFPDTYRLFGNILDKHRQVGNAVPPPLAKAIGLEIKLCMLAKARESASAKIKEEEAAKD
Structures can show the parent of a compound that is named as a salt.
VALUE_TYPE: DNMT1 BioChemical (pIC50 category)

# annotated cases, reported DNMT1 BioChemical (pIC50 category) shown
| COMPOUND | DNMT1 BioChemical (pIC50 category) |
| --- | --- |
| CCc1c(C#N)c(SC(C(N)=O)c2ccccc2)nc(N(C)CCNCC(C)(C)C)c1C#N (stereo not drawn) [Example 488] | D (Category D: ≥6.5) |
| CCc1c(C#N)c(SC(C(N)=O)c2ccccc2)nc(N(C)CCCN)c1C#N (stereo not drawn) [Example 670, hydrochloride] | D (Category D: ≥6.5) |
| CCc1c(C#N)c(SCc2ccc(N(C)S(C)(=O)=O)cc2)nc(N2CCCC(CN(C)C)C2)c1C#N (stereo not drawn) [Example 597] | D (Category D: ≥6.5) |
| CCc1c(C#N)c(S[C@@H](C(N)=O)c2ccccc2)nc(N2CCC(N3CCCC3)CC2)c1C#N [Example 405] | D (Category D: ≥6.5) |
| CN1CCN(CC2CCN(c3nc(SC(C(N)=O)c4ccccc4)c(C#N)c(C4CC4)c3C#N)CC2)CC1 (stereo not drawn) [Example 125, trifluoroacetate] | D (Category D: ≥6.5) |
| CCc1c(C#N)c(SC(C(N)=O)c2ccccc2)nc(N2CCC(OC(=O)[C@@H](N)C(C)C)CC2)c1C#N (stereo partly drawn) [Example 274] | D (Category D: ≥6.5) |
| CCc1c(C#N)c(SC(C(N)=O)c2ccccc2)nc(N(C)CC(=O)N2C[C@@H](CO)[C@@H](O)C2)c1C#N (stereo partly drawn) [Example 637] | D (Category D: ≥6.5) |
| CCc1c(C#N)c(SC(C(N)=O)c2ccccc2F)nc(N2CC[C@H](O)C2)c1C#N (stereo partly drawn) [Example 682] | D (Category D: ≥6.5) |

Returns the measured DNMT1 BioChemical (pIC50 category) for the input compound. Input: CCc1c(C#N)c(SC(C(N)=O)c2ccc(F)cc2)nc(N2CCC(N3CC(OC)C3)CC2)c1C#N (stereo not drawn) [Example 698]
D (Category D: ≥6.5)

I would be grateful if you could share the reported DNMT1 BioChemical (pIC50 category) for N#Cc1c(SC(C(N)=O)c2ccccc2)nc(N2CCC(CN3CCCC3)CC2)c(C#N)c1C1CC1 (stereo not drawn) [Example 39] .
D (Category D: ≥6.5)

Could you tell me which DNMT1 BioChemical (pIC50 category) is on file for CCc1c(C#N)c(SC(C(N)=O)c2ccccc2)nc(N(C)CC(=O)NO)c1C#N (stereo not drawn) [Example 679] ?
D (Category D: ≥6.5)

Entry under review: CCc1c(C#N)c(SC(C(N)=O)c2ccccc2)nc(N(C)CCN2CCC[C@@H]2C)c1C#N (stereo partly drawn) [Example 463] . Reported DNMT1 BioChemical (pIC50 category)?
D (Category D: ≥6.5)

Please give the measured DNMT1 BioChemical (pIC50 category) for this compound: CCc1c(C#N)c(SC(C(N)=O)c2ccccc2)nc(N(C)CC(=O)N(C)CCCO)c1C#N (stereo not drawn) [Example 665]
D (Category D: ≥6.5)

Give the measured DNMT1 BioChemical (pIC50 category) of CCc1c(C#N)c(SC(C(N)=O)c2ccccc2)nc(N(C)CC(=O)N2C[C@@H](CO)[C@H](O)C2)c1C#N (stereo partly drawn) [Example 649] .
D (Category D: ≥6.5)

Which measured DNMT1 BioChemical (pIC50 category) value corresponds to CCc1c(C#N)c(SC(C(N)=O)c2ccccc2)nc(N2CCO[C@H](CNC(=O)C(C)(C)N)C2)c1C#N (stereo partly drawn) [Example 581] ?
D (Category D: ≥6.5)

---

test system: erythroid progenitor cells (EPCs); assay: Fetal hemoglobin (HbF) ELISA in day 7 erythroid progenitor cells; assay type: cell-based, human; details: Homo sapiens, Erythroid progenitor cell, HbF ELISA, day 7 EPCs, 5 days; read-out: EPC ELISA (pEC50 category) (converted);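 further: for fetal hemoglobin induction normalized to vehicle-treated cells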
VALUE_TYPE: EC50

Past entries and their recorded results:
| COMPOUND | EC50 |
| --- | --- |
| CCc1c(C#N)c(S[C@@H](C(N)=O)c2ccc(F)cc2F)nc(N2CC[C@H](O)C2)c1C#N | 1000 to 31600 nM |
| CCc1c(C#N)c(SC(C(N)=O)c2ccccc2)nc(N2CCN(Cc3cncs3)CC2)c1C#N (stereo not shown) | 316 to 1000 nM |
| CCc1c(C#N)c(SCc2ccccc2)nc(N2CCC(N)CC2)c1C#N | > 31600 nM |
| CCc1c(C#N)c(SC(C(N)=O)c2ccccc2)nc(N2CCC3(CCO3)C2)c1C#N (stereo not shown) | 1000 to 31600 nM |
| CCc1c(C#N)c(SC(C(N)=O)c2ccccc2)nc(N(C)CC(=O)N2CC[C@H](O)C2)c1C#N (stereo partly shown) | < 316 nM |

Entry under review: CCc1c(C#N)c(SC(C(N)=O)c2ccc(F)cc2)nc(N2CCN(C(C)(C)CO)CC2)c1C#N (stereo not shown) . Reported EC50?
316 to 1000 nM

Any idea what EC50 was measured for CCc1c(C#N)c(SC(C(N)=O)c2cccc(P(C)(C)=O)c2)nc(N2CC[C@H](O)C2)c1C#N (stereo partly shown) ?
1000 to 31600 nM

Query: EC50; subject: CCc1c(C#N)c(S[C@@H](C(N)=O)c2ccccc2)nc(N(C)C)c1C#N
< 316 nM

Any idea what its EC50 is? The compound is CCc1c(C#N)c(SC(C(N)=O)c2cc(F)ncc2F)nc(N2CCCN(C)CC2)c1C#N (stereo not shown)
> 31600 nM

---

target: DNMT1 (Homo sapiens, UniProt P26358); experiment: DNMT1 biochemical activity, breaklight assay and/or SPA assay; conditions: binned activity in either the breaklight or the SPA assay
Counter-ions that a name gives are not always drawn.
VALUE_TYPE: DNMT1 BioChemical (pIC50 category)

| COMPOUND | SYSTEM | DNMT1 BioChemical (pIC50 category) |
| --- | --- | --- |
| N#Cc1c(SC(C(N)=O)c2ccccc2)nc(N2CCCC(N)C2)c(C#N)c1C1CC1 (stereo not drawn) | DNMT1 (Homo sapiens, UniProt P26358) | D (Category D: ≥6.5) |
| CCc1c(C#N)c(SC(C(N)=O)c2ccccc2)nc(N2CCCN(CCOC)CC2)c1C#N (stereo not drawn) | DNMT1 (Homo sapiens, UniProt P26358) | D (Category D: ≥6.5) |
| CCc1c(C#N)c(SC(C(N)=O)c2ccccc2)nc(N2CCO[C@H](CN(CC)CC)C2)c1C#N (stereo partly drawn) | DNMT1 (Homo sapiens, UniProt P26358) | D (Category D: ≥6.5) |
| CCc1c(C#N)c(SC(C(N)=O)c2ccccc2)nc(N2CCC(NCC(=O)O)CC2)c1C#N (stereo not drawn) | DNMT1 (Homo sapiens, UniProt P26358) | D (Category D: ≥6.5) |
| CCc1c(C#N)c(SC(C(N)=O)c2ccccc2)nc(N2CCC(N3CCN(C)CC3)CC2)c1C#N (stereo not drawn) | DNMT1 (Homo sapiens, UniProt P26358) | D (Category D: ≥6.5) |
| CCc1c(C#N)c(SCc2ccc(N(C)S(=O)(=O)CF)cc2)nc(N2CCCN(C)CC2)c1C#N | DNMT1 (Homo sapiens, UniProt P26358) | D (Category D: ≥6.5) |
| CCc1c(C#N)c(SCc2ccc(CNC(=O)CO)cc2)nc(N(C)C)c1C#N | DNMT1 (Homo sapiens, UniProt P26358) | D (Category D: ≥6.5) |
| CCc1c(C#N)c(SC(C(N)=O)c2ccccc2)nc(N2CCC(OCCN)CC2)c1C#N (stereo not drawn) [Example 149, Trifluoroacetic Acid Salt] | DNMT1 (Homo sapiens, UniProt P26358) | D (Category D: ≥6.5) |
| CCc1c(C#N)c(S[C@@H](C(N)=O)c2ccccc2)nc(N2CC[C@H](NC(=O)OC(C)(C)C)[C@H](O)C2)c1C#N | DNMT1 (Homo sapiens, UniProt P26358) | D (Category D: ≥6.5) |
| CCc1c(C#N)c(SCc2ccc(CNC(=O)CNC)cc2)nc(N2CCCN(C)CC2)c1C#N | DNMT1 (Homo sapiens, UniProt P26358) | D (Category D: ≥6.5) |

Need DNMT1 BioChemical (pIC50 category), item CCc1c(C#N)c(S[C@@H](C(N)=O)c2ccccc2)nc(N2CC[C@@H](N)[C@H](O)C2)c1C#N
D (Category D: ≥6.5)

Value lookup for DNMT1 BioChemical (pIC50 category); key = COc1c(C#N)c(SC(C(N)=O)c2ccccc2)nc(N2CCCN(CCO)CC2)c1C#N (stereo not drawn)
D (Category D: ≥6.5)

Fill in: DNMT1 BioChemical (pIC50 category) of CCc1c(C#N)c(SC(C(N)=O)c2ccccc2)nc(N2CCC(NC(C)(C)C(=O)OC)CC2)c1C#N (stereo not drawn) is ___
D (Category D: ≥6.5)

Give the measured DNMT1 BioChemical (pIC50 category) of CCc1c(C#N)c(S[C@H](C(N)=O)c2ccccc2)nc(N2C[C@H](O)CO2)c1C#N (single isomer, unassigned) .
D (Category D: ≥6.5)

Which DNMT1 BioChemical (pIC50 category) is listed for CCCN1CCCN(c2nc(SC(C(N)=O)c3ccccc3)c(C#N)c(CC)c2C#N)CC1 (stereo not drawn) ?
D (Category D: ≥6.5)

I would be grateful if you could share the reported DNMT1 BioChemical (pIC50 category) for CCc1c(C#N)c(SC(C(N)=O)c2ccccc2)nc(N(C)CCN2CC[C@H](N)C2)c1C#N (stereo partly drawn) .
D (Category D: ≥6.5)

Data request, read-out DNMT1 BioChemical (pIC50 category), for CCc1c(C#N)c(SC(C(N)=O)c2ccccc2)nc(N2CCC(NCC3(C)CC3)CC2)c1C#N (stereo not drawn)
D (Category D: ≥6.5)

# query: DNMT1 BioChemical (pIC50 category) of entry CCc1c(C#N)c(SCc2ccc(S(N)(=O)=O)cc2)nc(N2CCC(NC(=O)CN)CC2)c1C#N [Example 339, hydrochloride]
D (Category D: ≥6.5)

I have this compound here, CCc1c(C#N)c(SCc2ccc(N3CCCS3(=O)=O)cc2)nc(N2CCC(NCC(C)(C)C)CC2)c1C#N , and I need its recorded DNMT1 BioChemical (pIC50 category).
D (Category D: ≥6.5)

May I ask what DNMT1 BioChemical (pIC50 category) has been recorded for CCc1c(C#N)c(SCc2ccc(CNC(C)=O)cc2)nc(N2CCC(N3CCCC3)CC2)c1C#N [Example 66, trifluoroacetate] ?
D (Category D: ≥6.5)

Any idea what its DNMT1 BioChemical (pIC50 category) is? The compound is CCc1c(C#N)c(SC(C(N)=O)c2ccccc2)nc(N2CCC3(CC2)CNC3)c1C#N (stereo not drawn)
D (Category D: ≥6.5)

Look up DNMT1 BioChemical (pIC50 category) for this compound: CCc1c(C#N)c(SC(C(N)=O)c2ccccc2)nc(N2CCO[C@@H](CNC(=O)CN)C2)c1C#N (stereo partly drawn)
D (Category D: ≥6.5)

Please give the measured DNMT1 BioChemical (pIC50 category) for this compound: CCc1c(C#N)c(SCc2ccc(CC(=O)NC)cc2)nc(N2CCCN(C)CC2)c1C#N
D (Category D: ≥6.5)

For CCOc1c(C#N)c(SCc2ccc(CNC(C)=O)cc2)nc(N2CCCN(C)CC2)c1C#N , what is its reported DNMT1 BioChemical (pIC50 category)?
D (Category D: ≥6.5)

For CCc1c(C#N)c(S[C@@H](C(N)=O)c2ccccc2)nc(N2CC[C@@H](NC(=O)OC(C)(C)C)[C@@H](O)C2)c1C#N , what is its reported DNMT1 BioChemical (pIC50 category)?
D (Category D: ≥6.5)

Given CCc1c(C#N)c(SCc2ccc(N(C)S(C)(=O)=O)cc2)nc(N2CCOC(CN(C)C)C2)c1C#N (stereo not drawn) , state its recorded DNMT1 BioChemical (pIC50 category).
D (Category D: ≥6.5)
